# TGI values compiled below
- System: MDA-MB-231 breast
- testProtocol: NCI tumour cell line growth inhibition, 48 h

molecule	measuredOn	recordedValue
O=C1c2ccccc2-c2c1c1c(O)cccc1n2Cc1ccccc1	MDA-MB-231 breast	> 100 µM
O=C(O)CSc1cc(NS(=O)(=O)c2ccc(Br)cc2)c2ccccc2c1O	MDA-MB-231 breast	8.08 µM
N#CC1=C(N)Oc2c(ccc3ccccc23)C1c1cc2ccccc2n2nnnc12 (stereo unspecified)	MDA-MB-231 breast	> 100 µM

The molecule `O=C(NO)c1ccc(CNc2cccc3nc(C4CC4)n(-c4ccccc4)c(=O)c23)cc1` showed TGI equal to 7.33 µM

Value of TGI reported for the molecule `COc1ccc(OC)c(/C=C2/C(=O)N=C(NC(C)=O)N2C)c1` is > 100 µM

Just so you know, measured TGI for O=C1NC(=O)C2C3C=CC(C12)C1C2C(=O)NC(=O)C2C31 (stereo unspecified) came out at > 1000 µM

So for Clc1ccc(C(OCn2ccnc2)c2nc3ccccc3[nH]2)c(Cl)c1 (stereo unspecified) , the logged TGI turned out to be > 100 µM

response.value for N#CCC(=O)N/N=C\C(O)C(O)C(O)C(O)CO (stereo unspecified) (field: TGI) = > 100 µM

The recorded TGI for entry Cc1ccc2c(c1C)CC1(Cc3ccc(C)c(C)c3C1=O)C2=O (stereo unspecified) equals > 100 µM

TGI for `CN(Cc1cccc2ccsc12)/N=C\c1ccc(Cl)cc1` is > 100 µM

The reported value for `OC[C@H]1C[C@](O)(c2ccc(F)cc2)[C@@H](c2ccc(F)cc2)O1` in terms of TGI is > 100 µM

Notebook: `C#CCN(C(=O)C(F)(F)F)C(/C=C\C(=O)OC)(C(=O)OCC)C(=O)OCC` , TGI read as > 100 µM

TGI for `COC(=O)[C@@H]1Cc2ccc(OC)c(c2)OCCC(=O)N1` is > 100 µM

response.value for Cc1nc2ccc(S(=O)(=O)O)cc2c(=O)n1-c1ccc(C(=O)NN2C(=O)C(Cl)C2c2cccs2)cc1 (stereo unspecified) (field: TGI) = 45.1 µM

====

- Test system: U251 CNS
- testProtocol: NCI tumour cell line growth inhibition, 48 h
property: TGI

Examples with their reported TGI follow.
molecule	TGI
C#CCN(C(=O)C(F)(F)F)C(/C=C\C(=O)OC)(C(=O)OCC)C(=O)OCC	> 100 µM
FC(F)(F)c1cccc(CNC2CCN(CCc3ccccc3)CC2)c1	35.6 µM
O=[N+]([O-])c1ccc(/C=C/c2ccc(/C=C/c3ccc([N+](=O)[O-])cc3[N+](=O)[O-])cc2)c([N+](=O)[O-])c1	> 100 µM
CC(C)(C)c1ccc(OCCOCCOc2ccc(C(C)(C)C)cc2S(N)(=O)=O)c(S(N)(=O)=O)c1	> 100 µM

Now let's try a different one.
Just so you know, measured TGI for Cc1ccccc1NC(=O)C1C(=O)N(c2ccccc2C)C(=O)/C1=N\NC(N)=O (stereo not given) came out at > 100 µM

====

- System: CCRF-CEM leukemia
- testProtocol: NCI tumour cell line growth inhibition, 48 h
TGI overview

These solved cases illustrate the format of a correct answer.
molecule	recordedValue
COc1ccc(OC/C(N)=N/NC(=O)c2ccncc2)cc1	> 100 µM
CCCCC(C(=O)C(=O)Nc1ccccc1CC)C(=O)C(C)C (stereo not given)	> 100 µM
Cc1cn([C@H]2C[C@@H](N3C(=O)c4ccccc4C3=O)[C@@H](CO[Si](C)(C)C(C)(C)C)O2)c(=O)[nH]c1=O	> 100 µM
CC(C)(CCCCC(C)(C)NC1=NCCO1)NC1=NCCO1	> 10 µM
COC(=O)c1c(C)cccc1C1CN=NC12Cc1cc(C)c(C)cc1C2=O (stereo not given)	> 100 µM
CN(c1ccccc1)c1c2ccccc2nc2[nH]c3ccccc3c12	> 100 µM
C(=NC12CC3CC(CC(C3)C1)C2)C1CCCCC1	> 100 µM
C(=C\c1cc[n+](CCc2ccccc2)cc1)/c1ccccc1	42.5 µM
CC1(c2ccc(Cl)cc2)C=C(c2ccc(Cl)cc2)C(C#N)=C(C(C#N)C#N)N1 (stereo not given)	> 100 µM

Shifting focus to the molecule that follows.
The value of TGI measured for the molecule `O=c1c(-c2ccccc2)c(SCCCN2CCCCC2)n(-c2ccccc2)c(=S)n1-c1ccccc1` turned out to be 50.9 µM
